Values from paper PMC9490040

# SYSTEM UNDER TEST: NS3H (NS3 helicase domain) WT (Tick-borne encephalitis virus strain …, UniProt Q01299 1662-2110)
# Sequence (Q01299 1662-2110): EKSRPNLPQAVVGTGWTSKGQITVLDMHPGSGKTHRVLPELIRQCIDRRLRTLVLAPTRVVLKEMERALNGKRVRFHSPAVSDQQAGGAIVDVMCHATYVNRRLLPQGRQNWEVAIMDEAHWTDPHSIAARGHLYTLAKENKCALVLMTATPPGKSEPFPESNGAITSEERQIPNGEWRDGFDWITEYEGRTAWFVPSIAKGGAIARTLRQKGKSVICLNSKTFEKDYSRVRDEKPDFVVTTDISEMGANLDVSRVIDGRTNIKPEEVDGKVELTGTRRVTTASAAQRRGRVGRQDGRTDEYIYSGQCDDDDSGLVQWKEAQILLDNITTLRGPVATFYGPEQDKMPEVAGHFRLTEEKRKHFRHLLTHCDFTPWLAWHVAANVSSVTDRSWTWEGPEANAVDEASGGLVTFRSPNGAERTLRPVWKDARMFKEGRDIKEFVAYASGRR
# PROTOCOL DETAILS: fluorescence anisotropy; 1 mM Mg2+; no nucleotide; apparent KD; 20 mM Tris-HCl pH 7.5, 100 mM NaCl, 1 mM MgCl2, 7.5% glycerol; 45 min at 30 C; […]
# STATED CONDITIONS: protein: recombinant; tags: N-terminal 10xHis (pET-19b); label: 5' 6-FAM; single strand
ATTRIBUTE MEASURED: Kd (nM)
Just the number in nM, nothing appended.

Ask: So what does the record say about Kd for AGAUUUUCUUGC (ssRNA) [6-FAM-ssRNA12] ?
Result: 49.7
